Test system: Com21 synthetic gut community
Assay: community biomass OD578 after 24 h drug treatment relative to untreated (fraction of untreated control); higher = more community growth
Conditions: drug pretreatment concentration 80 µM; community: Com21 (Com20 + E. coli ED1a)
Form field: community biomass OD578 (one value per entry).
Observable: community biomass OD578

CCN(CC)C(C)CN1c2ccccc2Sc2ccccc21 (stereo unspecified) : 0.992
C#C[C@]1(O)CC[C@H]2[C@@H]3CCc4cc(O)ccc4[C@H]3CC[C@@]21C : 0.779
CNCCCC1c2ccccc2C=Cc2ccccc21 : 0.991
Clc1ccc(COC(Cn2ccnc2)c2ccc(Cl)cc2Cl)c(Cl)c1 (stereo unspecified) : 0.702
COc1cccc2c1C(=O)c1c(O)c3c(c(O)c1C2=O)C[C@@](O)(C(=O)CO)C[C@@H]3O[C@H]1C[C@H](N)[C@H](O)[C@H](C)O1 : 0.881
COc1ccc2[nH]c([S+]([O-])Cc3ncc(C)c(OC)c3C)nc2c1 (stereo unspecified) : 0.979
Clc1ccc(Cn2c(CN3CCCC3)nc3ccccc32)cc1 : 1.02
C[C@]1(Cn2ccnn2)[C@H](C(=O)O)N2C(=O)C[C@H]2S1(=O)=O : 0.733
C[C@H]1O[C@H](O[C@H]2[C@H](O)[C@@H](O)[C@@H](O[C@H]3[C@H](O)[C@@H](O)C(O)O[C@@H]3CO)O[C@@H]2CO)[C@H](O)[C@@H](O)[C@@H]1N[C@H]1C=C(CO)[C@@H](O)[C@H](O)[C@H]1O (stereo partly specified) : 1
CN(C)C(=N)NC(=N)N : 1.02
O=C1NCCN1CCN1CCC(c2cn(-c3ccc(F)cc3)c3ccc(Cl)cc23)CC1 : 0.786
O=c1[nH]c(=O)n([C@H]2C[C@H](O)[C@@H](CO)O2)cc1F : 0.882
Cc1c(OCC(F)(F)F)ccnc1C[S+]([O-])c1nc2ccccc2[nH]1 (stereo unspecified) : 0.945
CCC[C@@H]1C[C@@H](C(=O)N[C@@H]([C@H]2O[C@H](SC)[C@H](O)[C@@H](O)[C@H]2O)[C@H](C)Cl)N(C)C1 : 0.158
CC(=O)N1CCN(c2ccc(OCC3COC(Cn4ccnc4)(c4ccc(Cl)cc4Cl)O3)cc2)CC1 (stereo unspecified) : 0.928
CC(=O)Oc1cccc2c1C(=O)c1c(OC(C)=O)cc(C(=O)O)cc1C2=O : 0.337
CN1CCN(C2=Nc3ccccc3Oc3ccc(Cl)cc32)CC1 : 0.987
C[C@@H](O[C@H]1OCCN(Cc2n[nH]c(=O)[nH]2)[C@H]1c1ccc(F)cc1)c1cc(C(F)(F)F)cc(C(F)(F)F)c1 [Aprepitant] : 1.03
CCC(C)(C)C(=O)O[C@H]1C[C@@H](C)C=C2C=C[C@H](C)[C@H](CC[C@@H]3C[C@@H](O)CC(=O)O3)[C@H]21 : 0.844
COc1cc(C(=O)NS(=O)(=O)c2ccccc2C)ccc1Cc1cn(C)c2ccc(NC(=O)OC3CCCC3)cc12 : 0.81
Cc1c(N(C)CS(=O)(=O)O)c(=O)n(-c2ccccc2)n1C : 1
O=C(Nc1ccc([N+](=O)[O-])cc1Cl)c1cc(Cl)ccc1O [Niclosamide] : 0.823
CC(CN1c2ccccc2Sc2ccccc21)N(C)C (stereo unspecified) : 0.991
CCc1oc2ccccc2c1C(=O)c1cc(Br)c(O)c(Br)c1 : 0.687
CN(C)CCCN1c2ccccc2Sc2ccc(Cl)cc21 : 0.927
OC(Cn1cncn1)(Cn1cncn1)c1ccc(F)cc1F : 0.99
NC[C@H]1O[C@H](O[C@H]2[C@H](O)[C@@H](O[C@H]3O[C@H](CO)[C@@H](O)[C@H](N)[C@H]3O)[C@H](N)C[C@@H]2N)[C@H](N)C[C@@H]1O : 0.983
Cc1c(Cl)cccc1Nc1ccccc1C(=O)O : 0.923
CCOC1O[C@H]([C@@H](COCc2ccccc2)OCc2ccccc2)[C@H](OCc2ccccc2)[C@H]1O (stereo partly specified) [Tribenoside] : 0.945
CC[C@H]1OC(=O)[C@H](C)[C@@H](O[C@H]2C[C@@](C)(OC)[C@@H](O)[C@H](C)O2)[C@H](C)[C@@H](O[C@@H]2O[C@H](C)C[C@H](N(C)C)[C@H]2O)[C@](C)(O)C[C@@H](C)C(=O)[C@H](C)[C@@H](O)[C@]1(C)O : 0.496
C[C@H]1c2cccc(O)c2C(=O)C2=C(O)[C@]3(O)C(=O)C(C(N)=O)=C(O)[C@@H](N(C)C)[C@@H]3[C@@H](O)[C@@H]21 : 0.065
